Origin of the recorded values: patent US20170101476A1

TESTED TARGET: T1, Human CXCR2 (human, UniProt P25025 1-360)
T1 sequence: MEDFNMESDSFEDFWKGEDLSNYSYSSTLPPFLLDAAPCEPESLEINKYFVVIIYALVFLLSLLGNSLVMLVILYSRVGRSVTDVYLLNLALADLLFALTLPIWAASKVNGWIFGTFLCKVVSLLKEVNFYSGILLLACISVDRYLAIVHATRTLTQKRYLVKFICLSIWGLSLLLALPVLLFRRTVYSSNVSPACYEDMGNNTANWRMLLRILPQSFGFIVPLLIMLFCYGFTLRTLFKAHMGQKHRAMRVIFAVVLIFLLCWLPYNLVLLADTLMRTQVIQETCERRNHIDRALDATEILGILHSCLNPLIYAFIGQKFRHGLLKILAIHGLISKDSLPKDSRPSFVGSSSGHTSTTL
ASSAY TEXT: cell-based or functional assay
The following binders are listed with their measured [35S]GTPγS % inhibition max, GRO-α values.
The reply should contain only the number, in %.

Completed entries (count: 5):
>  <BINDER>
097A09 (VHH, not shown: small tags and cut ends) VHH: EVQLVESGGGLVQPGGSLRLSCVASGSIVRINTMGWYRQTPGKQRELVADITSGGNINYIDAVKGRFTISRDNTKNTVYLQMNSLKPEDTAVYYCNAEIVVLVGVWTQRARTGNYWGQGTQVTVSS

>  <MEASUREMENT UNIT>
%

>  <[35S]GTPγS % inhibition max, GRO-α>
100

$$$$
>  <BINDER>
54B12 (VHH, not shown: small tags and cut ends) VHH: EVQLVESGGGLVQAGGSLTLSCAVSGSTFRINTMGWYRRAPGKQRELVAARDRGGYINYVDSVKGRFTVSRDNAKPTMYLQMNSLKPEDTAVYYCHAGTQDRTGRNFDRWGQGTQVTVSS

>  <MEASUREMENT UNIT>
%

>  <[35S]GTPγS % inhibition max, GRO-α>
71.8

$$$$
>  <BINDER>
127D01 (VHH, not shown: small tags and cut ends) VHH: EVQLVESGGGLVQAGESLRLSCAASGSTFDFKVMGWYRQPPGKQREGVAAIRLSGNMHYAESVKGRFTISKANAKNTVYLQMNSLRPEDTAVYYCKVNIRGQDYWGQGTQVTVSS

>  <MEASUREMENT UNIT>
%

>  <[35S]GTPγS % inhibition max, GRO-α>
66

$$$$
>  <BINDER>
163D02 (VHH, not shown: small tags and cut ends) VHH: EVQLVESGGGLVQAGGSLRLSCAASGRTFSDYAMGWFRQAPGKEREFVAAITWNGGRVFYTASVKGRFTISRDNAKNTMYLQMNSLKPEDTAVYYCAADKDRRTDYLGHPVAYWGQGTQVTVSS

>  <MEASUREMENT UNIT>
%

>  <[35S]GTPγS % inhibition max, GRO-α>
100

$$$$
>  <BINDER>
163E03 (VHH, not shown: small tags and cut ends) VHH: EVQLVESGGGLVQPGGSLRLSCVASGRIFSSNAMGWFRQAPGKEREFVAAITWRSGGSAYYADSAKGRFTISRDNAKNTVYLQMNSLKPEDTAVYYCAAGGSSWLSFPPDYWGQGTQVTVSS

>  <MEASUREMENT UNIT>
%

>  <[35S]GTPγS % inhibition max, GRO-α>
100

$$$$

Now for a further binder.
Input line: Quick one: [35S]GTPγS % inhibition max, GRO-α of 2B2 (VHH, not shown: small tags and cut ends) VHH: EVQLVESGGELVQPGGSLRLSCAASGSILTINAMGWYRQAPGKQRELVVRRTRGGSTTYQDSVKGRFTISADIAKKTMYLQMNSLKPEDTAVYYCMLDDRGGVYWGQGTQVTVSS ?
Output line: 71.3
